test_details: qHTS RealTime-Glo MT Cell Viability Assay in HEK293 cells - 8 hour (AID 1224887); further: nearly all actives have a fitted effect of over 50% in size
measurement_parameters: RealTime-Glo luminescence; series mostly up to 76.8 µM
Inconclusive results are not listed. Active and inactive are the calls of the source. The call rests on the fitted dose curve; in most records, active means well fitted cell-killing curve with a large enough effect in the repeat runs; inconclusive means weak or mixed curves, or effect the other way; inactive means flat fitted curve, though single readings scatter.
Output constraint: value belongs to True (active), False (inactive)

Look up the recorded call for `C[N+](C)(C)CCOC(=O)C(O)(c1ccccc1)c1ccccc1` in this test.
False

Look up the recorded call for `CC(=O)NNc1ccccc1` in this test.
False

Look up the recorded call for `O=C(N/N=C/c1ccc([N+](=O)[O-])o1)c1cc([N+](=O)[O-])cc([N+](=O)[O-])c1O` in this test.
False

Look up the recorded call for `CNC(=O)Oc1cccc(N=CN(C)C)c1` in this test.
False

Look up the recorded call for CCc1cnc(C2=NC(C)(C(C)C)C(=O)N2)c(C(=O)O)c1 (centres undefined) in this test.
False

Look up the recorded call for `CCC(C)(C)c1ccc(O)c(C(C)(C)CC)c1` in this test.
True

Look up the recorded call for `O=C(O)C(Cl)(Cl)Br` in this test.
False

Look up the recorded call for COP(=O)(OC)OC(Br)C(Cl)(Cl)Br (centres undefined) in this test.
False

Look up the recorded call for `O=C(O)C(F)(F)C(F)(F)C(F)(F)C(F)(F)C(F)(F)F` in this test.
False

Look up the recorded call for `CCCCCCCCCCCCN(C)C` in this test.
False

Look up the recorded call for `O=[N+]([O-])O[C@H]1CO[C@H]2[C@@H]1OC[C@H]2O[N+](=O)[O-]` in this test.
False

Look up the recorded call for `CN(C1CCCCC1)C1CCCCC1` in this test.
False

Look up the recorded call for `C[C@H]1[C@@H]2Cc3ccc(O)cc3[C@@]1(C)CCN2C` in this test.
False

Look up the recorded call for `O=C(NC(=O)c1cc(F)c(F)cc1Cl)Nc1cc(F)ccc1N1CCC(C(=O)O)CC1` in this test.
False

====

test_details: qHTS assay to identify small molecule agonists of the AP-1 signaling pathway - cell viability counter screen (AID 1159525); further: nearly all actives have a fitted effect of over 55% in size
measurement_parameters: ME-180 (cervical carcinoma) AP-1-bla cells viability, ATP luminescence, 5 h; series mostly up to 76.8 µM
Records with an inconclusive call do not appear. The source made the active and inactive calls. Calls come from the whole dose curve.
metric: viability change, negative = cytotoxic

>>> recorded_value("C=CC(=O)OCC")
"inactive"
>>> recorded_value("CCCCC(CC)CO[N+](=O)[O-] (stereo not drawn)")
"inactive"
>>> recorded_value("CCC(=O)O[C@@H]1C=C2CCC3C(CCC4(C)C3CC[C@@H]4OC(=O)CC)C2CC1 (stereo partly drawn)")
"inactive"

====

test_details: qHTS assay to identify small molecule antagonists of the estrogen related receptor (ERR) signaling pathway from Tox21 library - cell viability counter screen (AID 1224834); further: nearly all actives have a fitted effect of over 30% in size
measurement_parameters: ERR reporter cells viability, CellTiter-Fluor, 17.5 h; series mostly up to 92.4 µM
Inconclusive results are not listed. Activity calls are given as the source filed them. Calls come from the whole dose curve; as a rule, active = well fitted cell-killing curve with a large enough effect in the repeat runs; inconclusive = weak or mixed curves; inactive = flat fitted curve, though single readings scatter.
metric: outcome

>>> recorded_value("O=C(Cl)OCCOCCOC(=O)Cl")
"inactive"
>>> recorded_value("C=CC(=O)NC(C)(C)CC(C)=O")
"inactive"
>>> recorded_value("Nc1ccccc1C(=O)OCC(O)CO (stereo not drawn)")
"inactive"

====

tested_target: Estrogen receptor (Homo sapiens) (UniProt P03372)
Sequence (P03372 whole entry, looked up): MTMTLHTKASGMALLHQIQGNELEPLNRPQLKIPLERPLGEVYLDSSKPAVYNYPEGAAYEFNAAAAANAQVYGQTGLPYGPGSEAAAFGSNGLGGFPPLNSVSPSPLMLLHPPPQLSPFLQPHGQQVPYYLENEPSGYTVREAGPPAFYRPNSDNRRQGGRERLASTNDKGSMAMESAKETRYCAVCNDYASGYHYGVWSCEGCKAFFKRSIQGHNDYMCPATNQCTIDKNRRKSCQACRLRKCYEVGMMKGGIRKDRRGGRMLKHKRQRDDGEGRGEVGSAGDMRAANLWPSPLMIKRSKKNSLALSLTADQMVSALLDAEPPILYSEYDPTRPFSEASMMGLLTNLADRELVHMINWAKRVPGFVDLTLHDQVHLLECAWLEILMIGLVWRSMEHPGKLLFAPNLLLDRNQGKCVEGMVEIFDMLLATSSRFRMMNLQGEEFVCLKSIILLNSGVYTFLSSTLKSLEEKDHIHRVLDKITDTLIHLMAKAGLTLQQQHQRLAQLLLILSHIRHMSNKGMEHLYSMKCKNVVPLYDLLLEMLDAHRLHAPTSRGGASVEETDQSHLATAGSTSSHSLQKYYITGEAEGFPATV
test_details: qHTS assay to identify small molecule antagonists of the estrogen receptor alpha (ER-alpha) signaling pathway (AID 743069)
measurement_parameters: HEK293 ER-alpha-UAS-bla, beta-lactamase ratio, antagonist mode; series mostly up to 69.4 µM
Inconclusive results are not listed. The source made the active and inactive calls. Calls come from the whole dose curve; as a rule, active = well fitted curve in the direction sought with a large enough effect in the signal ratio in the repeat runs (not every such curve was filed as active); inconclusive = weak or mixed curves, or effect the other way; inactive = no such curve, though single readings can be large or run the other way; the % refers to the signal ratio.
metric: outcome

>>> recorded_value("CCCSP(=S)(OCC)Oc1ccc(SC)cc1 (stereo not drawn)")
"inactive"
>>> recorded_value("CC(C)c1ccc(OP(=O)(Oc2ccc(C(C)C)cc2)Oc2ccc(C(C)C)cc2)cc1")
"inactive"
>>> recorded_value("C=CCc1ccccc1O")
"inactive"
>>> recorded_value("CC(C)OC(=O)Cc1ccccc1")
"inactive"
>>> recorded_value("COc1ccc(C(O)(c2cncnc2)C2CC2)cc1 (stereo not drawn)")
"inactive"
>>> recorded_value("C[C@H]1O[C@H](OC2[C@@H](O)[C@@H](O)C(O)[C@H](O)[C@H]2O)[C@@H](N)C[C@@H]1N=C(N)C(=O)O (stereo partly drawn)")
"inactive"
>>> recorded_value("CCOP(=O)(O)C(N)=O")
"inactive"
>>> recorded_value("CN1C(=O)CN=C(c2ccccc2)c2cc([N+](=O)[O-])ccc21")
"inactive"

Dear colleague, I am looking for the recorded outcome of the following compound: `NC(=S)c1c(Cl)cccc1Cl`
inactive

Dear colleague, I am looking for the recorded outcome of the following compound: `Cc1nc(N(C)C)nc(OC(=O)N(C)C)c1C`
inactive

Dear colleague, I am looking for the recorded outcome of the following compound: `NCCc1cc(O)c(O)cc1O`
inactive

Dear colleague, I am looking for the recorded outcome of the following compound: `O=C([O-])c1ccccn1.O=C([O-])c1ccccn1.O=C([O-])c1ccccn1.[Cr+3]`
inactive

Dear colleague, I am looking for the recorded outcome of the following compound: `CCC(C)(C)O`
inactive

Dear colleague, I am looking for the recorded outcome of the following compound: `O=C(O)c1cc(I)cc(I)c1I`
inactive

Dear colleague, I am looking for the recorded outcome of the following compound: COc1cc(CC(C)N)c(OC)cc1Br (stereo not drawn)
inactive

Dear colleague, I am looking for the recorded outcome of the following compound: `CCOP(=S)(S)OCC`
inactive

Dear colleague, I am looking for the recorded outcome of the following compound: `C=CC(=O)NC(C)(C)CC(C)=O`
inactive

Dear colleague, I am looking for the recorded outcome of the following compound: CCCC1CCCCN1 (stereo not drawn)
inactive

Sourced from PubChem BioAssay (Tox21)
